TESTED ON: T1, HLA-A*02:01 (human)
T1 construct: monomers captured on streptavidin plates; also called MHC class I
ASSAY EXPLANATION: UV peptide exchange ELISA
Would you mind telling me the reported peptide exchange yield of each entry?

Need peptide exchange yield, item `FLDENIGGVAV` 50 to 75%

Next binder up: `FLTDLEDLTL` 50 to 75%

Next binder up: `ALNPEIVSV` 20 to 50%

Next binder up: `YLDPALELGPRNV` 50 to 75%

Next binder up: `NLPEYLPFV` 50 to 75%

Next binder up: `ALWKQLLEL` 50 to 75%

Next binder up: `KLLEATSAV` 20 to 50%

Next binder up: `KIFEMLEGV` 50 to 75%
